- Test system: Caenorhabditis elegans dauer (daf-2(e1370))
- assay-details: proportion of mobile C. elegans dauer larvae relative to DMSO control (fraction of DMSO control); higher = more viable, less nematicidal, active = 0.63 or less; extreme values may be limits of the assay
- test-context: 60 µM; 5 days; temperature: 20 °C
Pick one: Yes (active), No (inactive)

Would you mind telling me which call this test gave Cc1cccc(OCc2nc(-c3ccccc3Cl)no2)c1 ?
No

Would you mind telling me which call this test gave O=C(CSc1nnc(-c2ccc(Cl)cc2)o1)Nc1nccs1 ?
No

Would you mind telling me which call this test gave CCNC(=O)c1ccccc1-c1nc(-c2ccc(F)cc2)no1 ?
No

Would you mind telling me which call this test gave Cc1ccc(Cl)cc1NC(=O)CSc1nnc(-c2ccncc2)o1 ?
No

Would you mind telling me which call this test gave Fc1ccc(-c2nc(-c3ccc(Br)cc3)no2)cc1 ?
No

Would you mind telling me which call this test gave CCOC(=O)c1sc(NC(=O)CSc2nnc(-c3ccc(Cl)cc3)o2)c(C#N)c1C ?
No

Would you mind telling me which call this test gave COc1cccc(-c2noc(COc3ccc4ccccc4c3)n2)c1 ?
No

Would you mind telling me which call this test gave Cc1cccc(OCc2nc(-c3ccc(Br)cc3)no2)c1 ?
No

Would you mind telling me which call this test gave c1ccc(-c2noc(C3COc4ccccc4O3)n2)cc1 (stereo not given) ?
Yes

Would you mind telling me which call this test gave Clc1ccc(-c2noc(-c3ccccc3Br)n2)cc1 ?
No

Would you mind telling me which call this test gave CC(C)(C)c1ccc(OCc2nc(-c3ccccc3)no2)cc1 ?
No

Would you mind telling me which call this test gave Cc1ccccc1-c1nnc(SCC(=O)Nc2cc(C(F)(F)F)ccc2N2CCOCC2)o1 ?
No

Would you mind telling me which call this test gave COc1ccc(-c2nnc(SCc3ccccc3C)o2)cc1 ?
No

Would you mind telling me which call this test gave CCC(=O)Nc1ccccc1-c1nc(-c2ccncc2)no1 ?
No

Would you mind telling me which call this test gave Cc1ccc(CSc2nnc(-c3ccco3)o2)c(C)c1 ?
No

Would you mind telling me which call this test gave COc1ccc(-c2noc(-c3cc(C)ccc3C)n2)cc1 ?
No

Would you mind telling me which call this test gave Cc1cc(OCc2nc(-c3ccccn3)no2)c(C)cc1Br ?
No

Would you mind telling me which call this test gave Clc1ccc(CSc2nnc(-c3ccccc3)o2)cc1Cl ?
No

Would you mind telling me which call this test gave COc1ccc(C(=O)CSc2nnc(-c3cccc(Br)c3)o2)cc1 ?
No

Would you mind telling me which call this test gave Cc1cccc(-c2noc(-c3cccc(Br)c3)n2)c1 ?
No

Would you mind telling me which call this test gave Cc1ccc(-c2nc(-c3ccc(F)cc3)no2)cc1 ?
Yes

Would you mind telling me which call this test gave CCn1c(SCc2nc(-c3ccccc3)no2)nc2ccccc21 ?
No

Would you mind telling me which call this test gave O=C(CSc1nnc(-c2ccccc2Cl)o1)Nc1ccc(F)cc1 ?
No

Would you mind telling me which call this test gave Cc1ccc(-c2nc(-c3ccncc3)no2)cc1Cl ?
No

Would you mind telling me which call this test gave CC1CC(C)CN(C(=O)CSc2nnc(-c3cccc(Cl)c3)o2)C1 (stereo not given) ?
No

Would you mind telling me which call this test gave c1ccc2c(OCc3nc(-c4ccncc4)no3)cccc2c1 ?
No

Would you mind telling me which call this test gave CCCOc1ccc(-c2ccc(-c3nc(-c4cccnc4)no3)cc2)cc1 ?
No

Would you mind telling me which call this test gave Clc1ccc(-c2noc(-c3cccnc3)n2)cc1 ?
Yes

Would you mind telling me which call this test gave COc1nc(-c2ccc(Cl)cc2)ccc1-c1noc(C)n1 ?
No

Would you mind telling me which call this test gave CC(C)C(=O)Nc1ccccc1-c1nc(-c2ccccc2)no1 ?
No

Would you mind telling me which call this test gave COc1ccc(Cl)cc1NC(=O)CSc1nnc(-c2ccc(Br)cc2)o1 ?
No

Would you mind telling me which call this test gave Cc1ccc(OCc2nc(-c3ccncc3)no2)c(Br)c1 ?
No

Would you mind telling me which call this test gave O=C(CSc1nnc(-c2ccc(Cl)cc2)o1)Nc1ccccc1C(F)(F)F ?
No

Would you mind telling me which call this test gave COc1ccccc1-c1nc(-c2cccc(Br)c2)no1 ?
No

Would you mind telling me which call this test gave CCOc1ccccc1-c1nnc(SCC(=O)Nc2ccccc2)o1 ?
No

Would you mind telling me which call this test gave Clc1ccc(-c2nnc(SCc3ccccc3)o2)cc1 ?
No

Would you mind telling me which call this test gave O=C(CSc1nnc(-c2ccc(Br)cc2)o1)NC1CCCC1 ?
No

Would you mind telling me which call this test gave O=C(CSc1nnc(-c2ccccc2Cl)o1)NCc1ccccc1 ?
No

Would you mind telling me which call this test gave Brc1ccc(-c2nnc(SCc3ccccc3)o2)cc1 ?
No

Would you mind telling me which call this test gave COc1cccc(-c2noc(COc3ccc(Cl)cc3)n2)c1 ?
No

Would you mind telling me which call this test gave COc1ccc(OCc2nc(-c3ccccc3)no2)cc1 ?
No

Would you mind telling me which call this test gave Clc1ccc(CSc2nnc(-c3ccccc3Cl)o2)cc1 ?
No

Would you mind telling me which call this test gave COc1cccc(-c2noc(-c3ccc(C)cc3Cl)n2)c1 ?
No

Would you mind telling me which call this test gave COc1ccccc1-c1nnc(SCc2ccc(C#N)cc2)o1 ?
No

Would you mind telling me which call this test gave O=C(CSc1nnc(-c2ccco2)o1)Nc1ccc(Br)cc1 ?
No

Would you mind telling me which call this test gave Cc1nc(CSc2nnc(-c3ccc(Cl)cc3)o2)cs1 ?
No

Would you mind telling me which call this test gave Cc1ccc(-c2nc(-c3ccccc3Br)no2)cc1 ?
No

Would you mind telling me which call this test gave Ic1ccccc1-c1nc(-c2cccnc2)no1 ?
No

Would you mind telling me which call this test gave CCc1ccc(NC(=O)CSc2nnc(-c3ccc(Cl)cc3Cl)o2)cc1 ?
No

Would you mind telling me which call this test gave COc1cccc(NC(=O)c2ccccc2-c2nc(-c3ccccc3Cl)no2)c1 ?
No

The origin of these recorded values is the supplement of paper PMC11219838.
